src = PubChem BioAssay AID2060899

Test system: 565726-208-R1-J5-PDC complex spheroids, growth inhibition;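 further: spheroids exposed to compounds for seven days before readout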
assayText: Anticancer human tumor 565726-208-R1-J5-PDC patient-derived pancreatic adenocarcinoma cell line growth inhibition [RAS]; active means viability on the fitted dose curve at most 10% of control; inactive means the rest
experimentalConditions: second compound 0.00949 µM; first compound 0.3 µM
Respond using exactly one of the listed classes: t = active, f = inactive

Example entries begin here.
CCc1c2c(nc3ccc(O)cc13)-c1cc3c(c(=O)n1C2)COC(=O)[C@]3(O)CC + CCn1c(-c2cccnc2C(C)OC)c2c3cc(ccc31)N1CCOC(CC(NC(=O)C(C(C)C)N(C)C(=O)C3(F)CCN(C(=O)C#CC(C)(C)N(C)C)CC3)C(=O)N3CCCC(N3)C(=O)OCC(C)(C)C2)C1: t
CC1(C)CCC(Nc2ncc(C(F)(F)F)c(-c3c[nH]c4c(P(C)(C)=O)c(C#N)ccc34)n2)CN1 (centres undefined) + CCn1c(-c2cc(N3CCN(C)CC3)cnc2C(C)OC)c2c3cc(ccc31)-c1csc(n1)CC(NC(=O)C1CC1C)C(=O)N1CCCC(N1)C(=O)OCC(C)(C)C2: f
CC1(C)CCC(Nc2ncc(C(F)(F)F)c(-c3c[nH]c4c(P(C)(C)=O)c(C#N)ccc34)n2)CN1 (centres undefined) + CCn1c(-c2cccnc2C(C)OC)c2c3cc(ccc31)N1CCOC(CC(NC(=O)C(C(C)C)N(C)C(=O)C3(F)CCN(C(=O)C#CC(C)(C)N(C)C)CC3)C(=O)N3CCCC(N3)C(=O)OCC(C)(C)C2)C1: f

Then there is this molecule:
Challenge: Lab log entry: CCc1c2c(nc3ccc(O)cc13)-c1cc3c(c(=O)n1C2)COC(=O)[C@]3(O)CC + CCn1c(-c2cc(N3CCN(C)CC3)cnc2C(C)OC)c2c3cc(ccc31)-c1csc(n1)CC(NC(=O)C1CC1C)C(=O)N1CCCC(N1)C(=O)OCC(C)(C)C2 — outcome as called in the assay?
Response given: t
